The values you see were collected from patent US9163007B2.

# Lookup of reported Ki keyed by entry
target: Cdc7/Dbf4 (Homo sapiens (Human)); assay: Cdc7 Inhibition Assay; type: biochemical; settings: 6 data point; read-out: Ki (μM) 6 data point;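 also: reaction mixtures incubated 30 min on streptavidin-coated plates, then quantified by scintillation counting, with inhibition curves fitted by non-linear regression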
Sequence (O00311 whole entry): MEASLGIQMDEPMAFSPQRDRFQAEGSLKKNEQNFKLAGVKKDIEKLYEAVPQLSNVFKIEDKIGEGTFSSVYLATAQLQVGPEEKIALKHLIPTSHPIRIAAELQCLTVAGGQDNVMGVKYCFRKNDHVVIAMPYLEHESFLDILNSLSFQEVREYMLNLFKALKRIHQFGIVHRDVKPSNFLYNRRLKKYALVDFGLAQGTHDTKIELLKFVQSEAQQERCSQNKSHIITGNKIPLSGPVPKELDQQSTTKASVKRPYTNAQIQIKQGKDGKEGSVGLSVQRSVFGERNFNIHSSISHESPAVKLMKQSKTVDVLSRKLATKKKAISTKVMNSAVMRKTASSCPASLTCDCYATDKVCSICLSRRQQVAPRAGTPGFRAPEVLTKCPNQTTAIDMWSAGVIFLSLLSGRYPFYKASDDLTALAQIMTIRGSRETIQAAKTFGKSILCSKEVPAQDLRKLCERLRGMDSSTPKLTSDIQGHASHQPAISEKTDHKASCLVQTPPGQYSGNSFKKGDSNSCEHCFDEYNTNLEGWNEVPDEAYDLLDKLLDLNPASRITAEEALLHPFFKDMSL
Sequence (Q9UBU7 whole entry partner): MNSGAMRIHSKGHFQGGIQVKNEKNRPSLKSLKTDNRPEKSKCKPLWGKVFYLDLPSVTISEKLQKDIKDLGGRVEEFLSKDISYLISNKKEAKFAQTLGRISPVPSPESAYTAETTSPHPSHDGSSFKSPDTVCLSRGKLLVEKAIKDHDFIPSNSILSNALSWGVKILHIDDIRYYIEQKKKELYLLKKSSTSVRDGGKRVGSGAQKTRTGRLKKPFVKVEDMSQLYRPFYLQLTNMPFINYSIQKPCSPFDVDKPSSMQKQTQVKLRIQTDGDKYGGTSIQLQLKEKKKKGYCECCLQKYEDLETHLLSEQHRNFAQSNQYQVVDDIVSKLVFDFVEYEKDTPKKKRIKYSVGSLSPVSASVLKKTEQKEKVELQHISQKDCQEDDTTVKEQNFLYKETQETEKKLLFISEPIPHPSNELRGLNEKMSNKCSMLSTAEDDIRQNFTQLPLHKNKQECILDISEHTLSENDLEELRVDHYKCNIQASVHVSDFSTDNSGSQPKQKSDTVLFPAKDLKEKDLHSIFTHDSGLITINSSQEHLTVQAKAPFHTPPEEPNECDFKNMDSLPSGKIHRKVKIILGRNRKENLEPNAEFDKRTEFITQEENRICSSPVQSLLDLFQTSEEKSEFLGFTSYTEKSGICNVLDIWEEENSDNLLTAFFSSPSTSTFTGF

{"COMPOUND": "O=C(Nc1n[nH]c2ccc(-c3nnn(Cc4ccccc4)c3-c3ccccc3)cc12)c1ccccc1", "TARGET": "Cdc7/Dbf4 (Homo sapiens (Human))", "RELATIONAL OPERATOR": "=", "Ki, µM": 0.0008}
{"COMPOUND": "Cc1ccccc1-c1c(-c2ccc3[nH]nc(N)c3c2)nnn1CC1CCOCC1", "TARGET": "Cdc7/Dbf4 (Homo sapiens (Human))", "RELATIONAL OPERATOR": "=", "Ki, µM": 0.03}
{"COMPOUND": "NC1CCN(C(=O)c2c(-c3ccc4[nH]ncc4c3)nnn2Cc2ccccc2)CC1", "TARGET": "Cdc7/Dbf4 (Homo sapiens (Human))", "RELATIONAL OPERATOR": "=", "Ki, µM": 1.23}
{"COMPOUND": "CC1CN(C(=O)c2c(-c3ccc4[nH]ncc4c3)nnn2Cc2ccccc2)CC(C)O1 (stereo not shown)", "TARGET": "Cdc7/Dbf4 (Homo sapiens (Human))", "RELATIONAL OPERATOR": ">", "Ki, µM": 1.23}
